experiment: Plasma and tumor compound concentrations in CT26 tumor-bearing mice (LC-MS/MS); assay type: in vivo, BALB/c mice; settings: BALB/c, mouse, plasma, intravenous; 0.375 mg/kg single i.v., 3.5 h (Table 4); read-out: Plasma Conc.
Counter-ions that a name gives are not always drawn.

molecule	unit-abbreviation	concentration at 3.5 h
CCn1nc(C)cc1C(=O)Nc1nc2cc(C(N)=O)cc3c2n1C/C=C/Cn1c(NC(=O)c2cc(C)nn2CC)nc2cc(C(=O)N[C@H]4CC[C@H](c5nnn[nH]5)CC4)cc(c21)OCCCO3 [Compound 6, sodium salt]	nM	440
CCn1nc(C)cc1C(=O)Nc1nc2cc(C(N)=O)cc3c2n1C/C=C/Cn1c(NC(=O)c2cc(C)nn2CC)nc2cc(C(=O)NCCCn4cc(C(=O)O)cn4)cc(c21)OCCCO3 [Compound 8, sodium salt]	nM	40
CCn1nc(C)cc1C(=O)Nc1nc2cc(C(N)=O)cc3c2n1C/C=C/Cn1c(NC(=O)c2cc(C)nn2CC)nc2cc(C(=O)N[C@H]4CC[C@H](C(=O)O)CC4)cc(c21)OC[C@@H](N1C2CCC1COC2)CO3 [Compound 14, sodium salt]	nM	450
CCn1nc(C)cc1C(=O)Nc1nc2cc(C(N)=O)cc3c2n1C/C=C/Cn1c(NC(=O)c2cc(C)nn2CC)nc2cc(C(=O)N[C@H]4CC[C@H](c5nnn[nH]5)CC4)cc(c21)OC[C@@H](N1C2CCC1COC2)CO3 [Compound 12, sodium salt]	nM	440

* * *

assay: Plasma and tumor compound concentrations in CT26 tumor-bearing mice (LC-MS/MS); type: in vivo, BALB/c mice; details: BALB/c, mouse, plasma, intravenous; 0.187 mg/kg single i.v., 3.5 h; read-out: Plasma Conc.
Counter-ions that a name gives are not always drawn.
quantity-kind: concentration at 3.5 h (nM)

compound	quantity-kind	unit-abbreviation	recorded-result
CCn1nc(C)cc1C(=O)Nc1nc2cc(C(N)=O)cc3c2n1C/C=C/Cn1c(NC(=O)c2cc(C)nn2CC)nc2cc(C(=O)N[C@H]4CC[C@H](C(=O)O)CC4)cc(c21)OCCCO3 [Compound 2, sodium salt]	concentration at 3.5 h	nM	220

* * *

experiment: Plasma and tumor compound concentrations in CT26 tumor-bearing mice (LC-MS/MS); assay type: in vivo, BALB/c mice; conditions: BALB/c, mouse, tumor, intravenous; 0.093 mg/kg single i.v., 8 h; read-out: Tumor Conc.
Counter-ions that a name gives are not always drawn.

compound	concentration at 8 h
CCn1nc(C)cc1C(=O)Nc1nc2cc(C(N)=O)cc3c2n1C/C=C/Cn1c(NC(=O)c2cc(C)nn2CC)nc2cc(C(=O)N[C@H]4CC[C@H](C(=O)O)CC4)cc(c21)OCCCO3 [Compound 2, sodium salt]	60 nM

* * *

assay: Plasma and tumor compound concentrations in CT26 tumor-bearing mice (LC-MS/MS); format: in vivo, BALB/c mice; details: BALB/c, mouse, tumor, intravenous; 0.375 mg/kg single i.v., 3.5 h (Table 3); read-out: Tumor Conc.
Where a name gives a salt, the structure may show the parent alone.
quantity-kind: concentration at 3.5 h (nM)

compound	recorded-result
CCn1nc(C)cc1C(=O)Nc1nc2cc(C(N)=O)cc3c2n1C/C=C/Cn1c(NC(=O)c2cc(C)nn2CC)nc2cc(C(=O)N[C@H]4CC[C@H](C(=O)O)CC4)cc(c21)OCCCO3 [Compound 2, sodium salt]	230

* * *

Experiment: Plasma and tumor compound concentrations in CT26 tumor-bearing mice (LC-MS/MS)
Assay type: in vivo, BALB/c mice
Details: BALB/c, mouse, plasma, intravenous; 0.375 mg/kg single i.v., 12 h (Table 3); read-out: Plasma Conc.
Experimental: Pharmacokinetic and Pharmacodynamic Profiling and Estimation of Immune Cell Infiltration in Tumors Following Treatment with Compounds 2, 6, 8, 12 and 14 Serum and tumor cytokine levels and corresponding compound concentrations in mouse plasma were determined following single-dose intravenous administration in CT26 (murine colorectal carcinoma) tumor-bearing mice. […] Tumor samples were homogenized and prepared for cytokine estimation (ELISA) and compound concentration were determined by LC-MS/MS. […]
Where a name gives a salt, the structure may show the parent alone.

molecule	concentration at 12 h [nM]
CCn1nc(C)cc1C(=O)Nc1nc2cc(C(N)=O)cc3c2n1C/C=C/Cn1c(NC(=O)c2cc(C)nn2CC)nc2cc(C(=O)N[C@H]4CC[C@H](C(=O)O)CC4)cc(c21)OCCCO3 [Compound 2, sodium salt]	50

* * *

test: Apparent solubility/extended kinetic solubility by UHPLC; format: physicochemical; details: aqueous buffer, thermodynamic from solid, phosphate buffer, 37° C.
Counter-ions that a name gives are not always drawn.
Reported solubility at 24 h values are given for each entry in this list.
quantity-kind: solubility at 24 h (µM)

compound	recorded-result
CCn1nc(C)cc1C(=O)Nc1nc2cc(C(N)=O)cc3c2n1C/C=C/Cn1c(NC(=O)c2cc(C)nn2CC)nc2cc(C(=O)N[C@H]4CC[C@H](c5nnn[nH]5)CC4)cc(c21)OC[C@@H](N1C2CCC1COC2)CO3 [Compound 12, sodium salt]	14200
CCn1nc(C)cc1C(=O)Nc1nc2cc(C(N)=O)cc3c2n1C/C=C/Cn1c(NC(=O)c2cc(C)nn2CC)nc2cc(C(=O)NCCCc4nnn[nH]4)cc(c21)OCCCO3 [Compound 3, sodium salt]	928
CCn1nc(C)cc1C(=O)Nc1nc2cc(C(N)=O)cc3c2n1C/C=C/Cn1c(NC(=O)c2cc(C)nn2CC)nc2cc(C(=O)N[C@H]4CC[C@H](c5nnn[nH]5)CC4)cc(c21)OCCCO3 [Compound 6, sodium salt]	3500
CCn1nc(C)cc1C(=O)Nc1nc2cc(C(N)=O)cc3c2n1C/C=C/Cn1c(NC(=O)c2cc(C)nn2CC)nc2cc(C(=O)N[C@H]4CC[C@H](C(=O)O)CC4)cc(c21)OC[C@@H](N1C2CCC1COC2)CO3 [Compound 14, sodium salt]	6800
CCn1nc(C)cc1C(=O)Nc1nc2cc(C(N)=O)cc3c2n1C/C=C/Cn1c(NC(=O)c2cc(C)nn2CC)nc2cc(C(=O)NCCc4nnn[nH]4)cc(c21)OCCCO3	149
CCn1nc(C)cc1C(=O)Nc1nc2cc(C(N)=O)cc3c2n1C/C=C/Cn1c(NC(=O)c2cc(C)nn2CC)nc2cc(C(=O)NCCc4ccccc4C(=O)O)cc(c21)OCCCO3 [Compound 5, sodium salt]	1120
CCn1nc(C)cc1C(=O)Nc1nc2cc(C(N)=O)cc3c2n1C/C=C/Cn1c(NC(=O)c2cc(C)nn2CC)nc2cc(C(=O)NCc4ncccc4C(=O)O)cc(c21)OCCCO3	100
CCn1nc(C)cc1C(=O)Nc1nc2cc(C(N)=O)cc3c2n1C/C=C/Cn1c(NC(=O)c2cc(C)nn2CC)nc2cc(C(=O)NCCCn4nn[nH]c4=O)cc(c21)OCCCO3	631

* * *

assay: Apparent solubility/extended kinetic solubility by UHPLC; format: physicochemical; settings: aqueous buffer, thermodynamic from solid, phosphate buffer, 37° C.
Structures can show the parent of a compound that is named as a salt.
Output yes for solubility at 24 h not less than 4000 µM; output no otherwise.

compound	class-label
CCn1nc(C)cc1C(=O)Nc1nc2cc(C(N)=O)cc3c2n1C/C=C/Cn1c(NC(=O)c2cc(C)nn2CC)nc2cc(C(=O)NCCCn4cc(C(=O)O)cn4)cc(c21)OC[C@@H](N1C2CCC1COC2)CO3 [Compound 18, sodium salt]	no
CCn1nc(C)cc1C(=O)Nc1nc2cc(C(N)=O)cc3c2n1C/C=C/Cn1c(NC(=O)c2cc(C)nn2CC)nc2cc(C(=O)NCCCn4cc(C(=O)O)cn4)cc(c21)OCCCO3 [Compound 8, sodium salt]	yes
CCn1nc(C)cc1C(=O)Nc1nc2cc(C(N)=O)cc3c2n1C/C=C/Cn1c(NC(=O)c2cc(C)nn2CC)nc2cc(C(=O)NCCCc4noc(=O)[nH]4)cc(c21)OCCCO3	no
CCn1nc(C)cc1C(=O)Nc1nc2cc(C(N)=O)cc3c2n1C/C=C/Cn1c(NC(=O)c2cc(C)nn2CC)nc2cc(C(=O)N[C@H]4CC[C@H](C(=O)O)CC4)cc(c21)OCCCO3 [Compound 2, sodium salt]	no
CCn1nc(C)cc1C(=O)Nc1nc2cc(C(N)=O)cc3c2n1C/C=C/Cn1c(NC(=O)c2cc(C)nn2CC)nc2cc(C(=O)NCCCc4nnn[nH]4)cc(c21)OC[C@@H](N1C2CCC1COC2)CO3 [Compound 16, sodium salt]	no

* * *

experiment: Plasma and tumor compound concentrations in CT26 tumor-bearing mice (LC-MS/MS); assay type: in vivo, BALB/c mice; settings: BALB/c, mouse, tumor, intravenous; 0.375 mg/kg single i.v., 12 h (Table 3); read-out: Tumor Conc.
Where a name gives a salt, the structure may show the parent alone.

compound	concentration at 12 h
CCn1nc(C)cc1C(=O)Nc1nc2cc(C(N)=O)cc3c2n1C/C=C/Cn1c(NC(=O)c2cc(C)nn2CC)nc2cc(C(=O)N[C@H]4CC[C@H](C(=O)O)CC4)cc(c21)OCCCO3 [Compound 2, sodium salt]	110 nM
